- test.protocol: Fibroblast viability / cytotoxicity assay
- Format: cell-based, mouse
- measurement.setup: mouse, NIH 3T3 fibroblasts (ATCC CCL-92)
assay.readout: IC50 at 4 h

structure.string	assay.readout	reading
CC[C@@H](C(C)C)[C@H](O)[C@@H](O)[C@@H](C)[C@H]1CC[C@H]2[C@@H]3CC(=O)[C@H]4C[C@H](F)CC[C@]4(C)[C@H]3CC[C@]12C	IC50 at 4 h	~30 µM

Switching to the query record.
Q: What does the data say about its IC50 at 4 h? Entry: "CC[C@@H](C(C)C)[C@H](O)[C@@H](O)[C@@H](C)[C@H]1CC[C@H]2[C@@H]3CC(=O)[C@H]4C[C@H](O)[C@H](O)C[C@]4(C)[C@H]3CC[C@]12C"
Ans: > 30 µM
